B1: Hairpin Ribozyme (parent)
chain: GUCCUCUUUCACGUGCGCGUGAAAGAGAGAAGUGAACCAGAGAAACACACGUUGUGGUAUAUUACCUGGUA

Variants of: B1
test_name: self-cleavage, relative activity (ratio to wild type); higher = more cleavage; co-transcriptional
assay_readout: self-cleavage
Number only, no unit.

// GACCUCUUUCACGUGCGCGUGGAAGAGAGAAGUGAACCAGAGAAACACACGUUGUGGUAUAUUACCUGGUA : self-cleavage value = 0.175

Record GUCCUCUUUCACGUGCGCGUGAAAGAGAGAAGUGAACCAGAGAGACACACCUUGUGGUAUAUUACCUGGUA , field self-cleavage: 0.238

self-cleavage reading for GUCCUCUUUCACUUGCGCGUGAAAGGGAGAAGUGAACCAGAGAAACACACGUUGUGGUAUAUUACCUGGUA : 0.675

# variant GUCCACUUUCACGUGCGCGUGAAAGAGAGAAGUGAACCAGAGAAACACACGUUGUAGUAUAUUACCUGGUA ; its self-cleavage = 0.214

Reported self-cleavage of GUCCUCUUUCCCGUGCGCGUGAAAGAGAGAAGUGAACCAGAGAAGCACACGUUGUGGUAUAUUACCUGGUA : 0.162

The value of self-cleavage measured for the variant GUCCUCUUUCACGUGCGCGUGAAAGAGAGAAGUGGACCAGAGGAACACACGUUGUGGUAUAUUACCUGGUA turned out to be 0.082

For record GUCCUCUUUCACGUGCGCGUGAAAGAGAGAAGUGAACAAAAGAAACACACGUUGUGGUAUAUUACCUGGUA the listed self-cleavage is 0.139

Reported self-cleavage of GUCCUAUUUCACGUGCGCGUGAAAGAGAGAAGUGAACCAGAGAAACACACGUUGUGGUAUAUUACCUGGAA : 0.598

Lab book: self-cleavage of GUCCUCUUUCACAUGCGCGUGAAAGAGAGAAGUGAACCAGAGAAACACACGUUGAGGUAUAUUACCUGGUA noted as 0.333

The reported self-cleavage of the variant GUCCUCUUUCACGUGCGCGUGAAAGAGAGAAGUGAACCAGAGAAACACACGUUAUGGAAUAUUACCUGGUA was 0.453

The variant identified as GUCCUCUUUCACGGGCGCGUGAAAGAGAGAAGUGUACCAGAGAAACACACGUUGUGGUAUAUUACCUGGUA registered its self-cleavage at 0.49

Kindly note the recorded self-cleavage for GUCCUCUUCCACGUGCGCGUGAAAGAGAGAAGUUAACCAGAGAAACACACGUUGUGGUAUAUUACCUGGUA , which is 1.09

self-cleavage in this record for GUCCUCUUUCACGUGCACGUGAAAGAGAGAAGUGAACCAGAGAAACACACGUUGUGGUAUAUUACCGGGUA : 0.243

GUCCUCUAUCACGUGCGCGUGAAAGAGAGAAGUGAAGCAGAGAAACACACGUUGUGGUAUAUUACCUGGUA yielded self-cleavage of 0.241

Recorded result, GUCCUCUUGCACGUGCGCGUGAAAGAGAGAAGUGAACCAGAGAAACACACGUUGUGGUGUAUUACCUGGUA , self-cleavage: 0.241

The variant listed as GUCCUCUUUCCCGUGCGCGUGAGAGAGAGAAGUGAACCAGAGAAACACACGUUGUGGUAUAUUACCUGGUA has a reported self-cleavage of 0.642

For reference, reported self-cleavage for GUCCUCUUUCGCGUGCGCGUGAAAGAGAGAAGUGAACCAGAGAAACACACGUUGUGGUAGAUUACCUGGUA stands at 0.565

Form field self-cleavage, entry GUCCUCUUUCACGUUCGCGUGAAAGAGAGGAGUGAACCAGAGAAACACACGUUGUGGUAUAUUACCUGGUA : 0.122

Please fill in: self-cleavage reported for GUCCUCUUUCACGUGCGCGUGAAAGAGAGAAGUGAACCAGAGAAACACACAUUGUGGUAUAUUACCCGGUA = 0.296

Data point: GUCCUCUUUCAAGUGCGCGUGAAAGAGAGAAGUGAACCAGAGAAACACACGUUGUUGUAUAUUACCUGGUA ; self-cleavage = 0.159

All figures here come from the RNAGym collection of RNA variant scans (doi:10.7554/elife.80360).
